The reported numbers originate from patent US7612064B2.

assay: Hoechst 33342 nuclear staining; assay type: cell-based; conditions: HeLa cells, conc 3
REPORTED PROPERTY: Hoechst 33342 nuclear staining score, HeLa

Give the reported Hoechst 33342 nuclear staining score, HeLa for this compound. COc1ccc(S(=O)(=O)n2cc(CNc3ccc(N4CCOCC4)cc3)cc2-c2cccc(OC)c2)cc1 0

----------
Test system: MRC5
Assay: MTS proliferation assay
Assay type: cell-based
Conditions: Homo sapiens, MRC5, 72 h
Procedure: The assay is performed in 96 well tissue culture plates. […] The test compounds are added in 20 μl complete medium containing max 5% DMSO. The final compound concentrations in the assays are 10 μM, 3 μM, 1 μM and 0.3 μM, respectively. The assay plates are incubated for 72 h at culture conditions. The MTS reagent is prepared according to the manufacturer's protocol (Promega G1111). […] Subsequently, the plates are shortly shacked and absorption measured with a microplate-reader at 492 nm.
pIC50: −log10 of the molar value.
# maps each entry to its pIC50

Below: 3 molecules and their reported pIC50.
ITEM SMILES | ENDPOINT VALUE
Cc1ccc(S(=O)(=O)n2cc(CNCCCN(C)C)cc2-c2ccc3c(c2)OCO3)cc1 | < 6.00
COc1ccc(S(=O)(=O)n2cc(CNc3ccc(N4CCOCC4)cc3)cc2-c2cc(OC)c(OC)c(OC)c2)cc1 | > 6.70
COc1ccc(S(=O)(=O)n2cc(-c3cncc(C(N)=O)c3)cc2-c2cc(OC)c(OC)c(OC)c2)cc1 | > 6.70

Give reported pIC50 value for COc1ccc(S(=O)(=O)n2cc(-c3ccc(N)nc3)cc2-c2cc(OC)c(OC)c(OC)c2)cc1 > 6.70

Supply recorded pIC50 for NC(=O)c1ccc(-c2cc(-c3ccc4c(c3)OCO4)n(S(=O)(=O)c3cccc(Cl)c3)c2)cc1 here. < 6.00

Consider the molecule COc1ccc(S(=O)(=O)n2cc(-c3cccnc3)cc2-c2cc(OC)c(OC)c(OC)c2)cc1 . State its measured pIC50. > 6.70

----------
Items are presented alongside their recorded Hoechst 33342 nuclear staining score, H460.
Test: Hoechst 33342 nuclear staining;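 further: apoptotic nuclei scored 0 none 1 weak under 50% of cells 2 strong over 50% of cells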
Format: cell-based
Conditions: H460 cells, conc 3
Description: This assay is performed in 96 well tissue culture plates. Appropriate number of cells (adherent cells: 3-5*10^3, suspension cells: 8-10*10^3) are being seeded out in 80 μl complete medium. […] The assay plates are then further incubated for 30 min and subsequently analyzed with a standard inverted fluorescence microscope. The readout allows the determination of the fraction of apoptotic nuclei as well as other morphological criteria specific for apoptosis as a function of the treatment. […]

COMPOUND | ENDPOINT VALUE
COc1cc(-c2cc(-c3cccnc3)cn2S(=O)(=O)c2c(Cl)cccc2Cl)cc(OC)c1OC | 0
CCCCOc1ccc(S(=O)(=O)n2cc(-c3cccnc3)cc2-c2cc(OC)c(OC)c(OC)c2)cc1 | 0
COc1cc(-c2cc(-c3cccnc3)cn2S(=O)(=O)c2ccc(F)cc2)cc(OC)c1OC | 0

Assign Hoechst 33342 nuclear staining score, H460 to the following record: NC(=O)c1cncc(-c2cc(-c3ccc4c(c3)OCO4)n(S(=O)(=O)c3cccc(Cl)c3)c2)c1 0

Return Hoechst 33342 nuclear staining score, H460 (reported value) for this compound: COc1cc(-c2cc(-c3cncc(C(=O)NCCC4CCCN4C)c3)cn2S(=O)(=O)c2ccc(C)cc2)cc(OC)c1OC.Cl (stereo not drawn) 0

Return value of Hoechst 33342 nuclear staining score, H460 for input O=S(=O)(c1cccc(Cl)c1)n1cc(CNc2ccc(-n3ccnc3)cc2)cc1-c1ccc2c(c1)OCO2 , no commentary. 0

Look up and state reported Hoechst 33342 nuclear staining score, H460 for COc1ccc(S(=O)(=O)n2cc(CNc3ccc(N4CCOCC4)cc3)cc2-c2cccc(OC)c2)cc1 0

Return value of Hoechst 33342 nuclear staining score, H460 for input COc1cc(-c2cc(-c3cccnc3)cn2S(=O)(=O)c2ccc(C(C)(C)C)cc2)cc(OC)c1OC , no commentary. 0

Assign Hoechst 33342 nuclear staining score, H460 to the following record: COc1cc(-c2cc(-c3cccnc3)cn2S(=O)(=O)/C=C/c2ccccc2)cc(OC)c1OC 0

Using known records, supply Hoechst 33342 nuclear staining score, H460 for COc1cc(-c2cc(-c3cccnc3)cn2S(=O)(=O)c2cn(C)cn2)cc(OC)c1OC 0

Return the recorded Hoechst 33342 nuclear staining score, H460 value; entry: COc1cc(-c2cc(-c3cccnc3)cn2S(=O)(=O)c2ccccc2Cl)cc(OC)c1OC 0

----------
test: Hoechst 33342 nuclear staining; type: cell-based; conditions: H460 cells, conc 3;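 further: apoptotic nuclei scored 0 none 1 weak under 50% of cells 2 strong over 50% of cells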
The following compounds are shown together with reported Hoechst 33342 nuclear staining score, H460 values.
# answer = number (no unit)

Consider the reported Hoechst 33342 nuclear staining score, H460 for these compounds:
ITEM SMILES | ENDPOINT VALUE
COc1ccc(S(=O)(=O)n2cc(CNc3ccc(N4CCOCC4)cc3)cc2-c2ccccc2OC)cc1 | 0
COc1cc(-c2cc(-c3cccnc3)cn2S(=O)(=O)c2ccccc2)cc(OC)c1OC | 0
COc1cc(-c2cc(-c3cccnc3)cn2S(=O)(=O)Cc2ccccc2)cc(OC)c1OC | 0

Note down Hoechst 33342 nuclear staining score, H460 recorded for COc1cc(-c2cc(-c3cncc(C(=O)O)c3)cn2S(=O)(=O)c2ccc(C)cc2)cc(OC)c1OC.N 0

----------
assay: Hoechst 33342 nuclear staining; assay type: cell-based; conditions: HeLa cells, conc 3;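 further: apoptotic nuclei scored 0 none 1 weak under 50% of cells 2 strong over 50% of cells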
Measured Hoechst 33342 nuclear staining score, HeLa by item

COMPOUND | ENDPOINT VALUE
COc1cc(-c2cc(-c3cccnc3)cn2S(=O)(=O)c2ccccc2)cc(OC)c1OC [Example 79] | 0

We next turn to a different compound, shown below.
Provide one value: measured Hoechst 33342 nuclear staining score, HeLa of COc1ccc(S(=O)(=O)n2cc(CNc3ccc(N4CCOCC4)cc3)cc2-c2ccccc2OC)cc1 [Example 97] 0

----------
Listing: Hoechst 33342 nuclear staining score, H460 of selected molecules
experiment: Hoechst 33342 nuclear staining; assay type: cell-based; conditions: H460 cells, conc 3;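 further: apoptotic nuclei scored 0 none 1 weak under 50% of cells 2 strong over 50% of cells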

MOLECULE | ENDPOINT VALUE
COc1cc(-c2cc(-c3cncc(C(=O)NC(C)CO)c3)cn2S(=O)(=O)c2ccc(C)cc2)cc(OC)c1OC.Cl (stereo not shown) [Example 63] | 0
COc1ccc(S(=O)(=O)n2cc(CNc3ccc(N4CCOCC4)cc3)cc2-c2ccc(OC)cc2OC)cc1 [Example 96] | 0

Next molecule, please.
Specify reported Hoechst 33342 nuclear staining score, H460 for the molecule shown: COc1cc(-c2cc(-c3cccnc3)cn2S(=O)(=O)c2ccc(N)cc2)cc(OC)c1OC [Example 93] 0

----------
system: Jurkat; experiment: MTS proliferation assay; type: cell-based, human; conditions: 72 h
pIC50: −log10 of the molar value.
// reported pIC50 per item

Solved cases below.
MOLECULE | EXPERIMENTAL TARGET | ENDPOINT VALUE
COc1cc(-c2cc(CNc3ccc(S(N)(=O)=O)cc3)cn2S(=O)(=O)c2ccc(C)cc2)cc(OC)c1OC [Example 70] | Jurkat | > 6.00
COc1cc(-c2cc(CNc3ccc4[nH]nnc4c3)cn2S(=O)(=O)c2ccc(C)cc2)cc(OC)c1OC [Example 69] | Jurkat | > 6.00
CCN(CC)CCN(C)Cc1cc(-c2ccc3c(c2)OCO3)n(S(=O)(=O)c2ccc(C)cc2)c1 [Example 19] | Jurkat | < 6.00
COc1cc(-c2cc(-c3cncc(C(=O)NCCC4CCCN4C)c3)cn2S(=O)(=O)c2ccc(C)cc2)cc(OC)c1OC.Cl (stereo not shown) [Example 62] | Jurkat | < 6.00
Cc1ccc(S(=O)(=O)n2cc(-c3cncnc3)cc2-c2ccc3c(c2)OCO3)cc1 [Example 46] | Jurkat | < 6.00
CN1CCN(CCCNCc2cc(-c3ccc4c(c3)OCO4)n(S(=O)(=O)c3cccc(Cl)c3)c2)CC1 [Example 4] | Jurkat | < 6.00
COc1ccc(S(=O)(=O)n2cc(-c3ccc(N)nc3)cc2-c2ccccc2OC)cc1 [Example 103] | Jurkat | > 6.00
Cc1ccc(S(=O)(=O)n2cc(CNCCN3CCCCC3)cc2-c2ccc3c(c2)OCO3)cc1 [Example 18] | Jurkat | < 6.00

Query pIC50 for Cc1ccc(S(=O)(=O)n2cc(CNCCN3CCN(Cc4ccccc4)CC3)cc2-c2ccc3c(c2)OCO3)cc1 [Example 16] < 6.00

Note down pIC50 recorded for Cc1ccc(S(=O)(=O)n2cc(-c3ccc(C#N)cc3)cc2-c2ccc3c(c2)OCO3)cc1 [Example 48] < 6.00

----------
Consider the following molecules and their measured pIC50 readings.
system: Jurkat; assay: MTS proliferation assay; format: cell-based, human; details: 72 h
pIC50: −log10 of the molar value.

Consider the worked cases shown below.
ITEM SMILES | pIC50
COc1ccc(S(=O)(=O)n2cc(CNc3ccc(N4CCOCC4)cc3)cc2-c2cc(OC)ccc2OC)cc1 | < 6.00
COc1cc(-c2cc(CNCCCN3CCN(C)CC3)cn2S(=O)(=O)c2ccc(C)cc2)cc(OC)c1OC | < 6.00
COc1ccc(S(=O)(=O)n2cc(CNc3ccc(N4CCOCC4)cc3)cc2-c2ccc(OC)cc2OC)cc1 | < 6.00
COc1ccc(S(=O)(=O)n2cc(CNc3ccc(N4CCOCC4)cc3)cc2-c2ccccc2OC)cc1 | < 6.00
COc1ccc(S(=O)(=O)n2cc(-c3cncc(C(N)=O)c3)cc2-c2ccccc2OC)cc1 | > 6.00

Now turn to the next molecule.
Indicate the recorded pIC50 value for this molecule: Cc1ccc(S(=O)(=O)n2cc(-c3ccc(C(N)=O)cc3)cc2-c2cccs2)cc1 < 6.00
